# targetOrTestSystem: EntB R196A isochorismatase (Escherichia coli, UniProt P0ADI4, R196A)
# Sequence (P0ADI4 whole entry R196A): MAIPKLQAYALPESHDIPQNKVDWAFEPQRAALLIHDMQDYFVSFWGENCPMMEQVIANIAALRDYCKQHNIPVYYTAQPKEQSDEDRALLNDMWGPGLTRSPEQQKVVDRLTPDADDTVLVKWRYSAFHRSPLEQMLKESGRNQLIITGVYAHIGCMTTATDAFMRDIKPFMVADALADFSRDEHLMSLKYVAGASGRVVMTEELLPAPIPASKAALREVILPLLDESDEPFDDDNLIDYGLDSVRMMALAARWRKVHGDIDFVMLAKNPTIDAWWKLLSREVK
# assayProtocol: EntB‐LDH coupled isochorismatase activity assay, EntB R196A
experimentalEndpoint: IC50 (µM)

| molecule | targetOrTestSystem | experimentalEndpoint | numericValue |
| --- | --- | --- | --- |
| O=C(O)c1cccc(O)c1O [2,3‐DHB, 2,3‐dihydroxybenzoic acid] | EntB R196A isochorismatase (Escherichia coli, UniProt P0ADI4, R196A) | IC50 | 692 |

* * *

Target chain: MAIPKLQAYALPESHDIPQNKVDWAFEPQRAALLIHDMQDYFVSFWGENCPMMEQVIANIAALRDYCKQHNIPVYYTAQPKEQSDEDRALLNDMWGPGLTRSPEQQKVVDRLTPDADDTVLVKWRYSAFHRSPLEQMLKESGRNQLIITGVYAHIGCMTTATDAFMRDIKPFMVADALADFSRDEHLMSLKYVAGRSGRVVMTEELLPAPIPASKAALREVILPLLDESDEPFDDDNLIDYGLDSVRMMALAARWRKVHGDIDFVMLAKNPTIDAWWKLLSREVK
pIC50: −log10 of the molar value.
experimentalEndpoint: pIC50

| compound | experimentalEndpoint | numericValue |
| --- | --- | --- |
| O=C(O)c1cccc(O)c1O [2,3‐DHB, 2,3‐dihydroxybenzoic acid] | pIC50 | 3.44 |
